Entries and their measured viability follow.
# ASSAY DETAILS: reversal of MRP1-mediated doxorubicin resistance, pilot screen, H69AR cells, doxorubicin co-treatment (AID 601)
# EXPERIMENTAL SETUP: H69AR cells, CellTiter-Glo, 72 h; compound alone cytotoxicity; at 10 µM
Answers without a unit are incomplete; give the number and then its unit.

Here's what some known entries look like.
{"COMPOUND": "CCOC(=O)c1ccc(NC(=O)CCc2c(C)nc3ncnn3c2C)cc1", "viability": "92.7%"}
{"COMPOUND": "COCCCNC(=O)CCc1nc2cccnc2n1Cc1ccc(OC)cc1", "viability": "99.2%"}
{"COMPOUND": "O=C(OCC#CCSc1nc2ccccc2o1)c1ccco1", "viability": "80.4%"}
{"COMPOUND": "CCc1ccc(NC(=O)CSc2nnc(Cc3cccn3C)n2-c2ccc(OC)cc2)cc1", "viability": "95.6%"}
{"COMPOUND": "CCOC(=O)C(NCc1ccccc1OC)(NC(C)=O)C(F)(F)F (stereo not given)", "viability": "91.8%"}
{"COMPOUND": "O=C(O)C1CCCCC1C(=O)NCCc1ccccc1 (stereo not given)", "viability": "99.2%"}
{"COMPOUND": "CCOc1ccc(-n2cc(C(=O)N3CCN(C)CC3)c3cc(OC)c(OC)cc3c2=O)cc1", "viability": "97.1%"}
{"COMPOUND": "Nc1nonc1NC(=O)CSc1nc2ccccc2s1", "viability": "90.8%"}
{"COMPOUND": "COc1ccc(-n2c(COc3cccc(C)c3)nnc2SCC(=O)NCc2ccco2)cc1", "viability": "85.4%"}
{"COMPOUND": "Cc1nnc(C)c2c(C)n(-c3ccc(Br)cc3)c(C)c12", "viability": "104%"}

Kindly consider the entry below.
QUERY: Would you mind telling me what viability value was observed for CCc1ccc2c(CN(CC)Cc3nc4ccccc4c(=O)[nH]3)cc(=O)oc2c1 ?
RESULT: 67.9%

---

This listing pairs molecules with measured inhibition.
# ASSAY DETAILS: growth suppression of yeast trafficking mutant, preliminary HTS, modulators of trafficking downstream of Golgi apparatus project, 1536-format plate, OD 615 nm (AID 637)
# EXPERIMENTAL SETUP: yeast transport mutant growth, absorbance 615 nm, 18 h; stronger effect = higher value
Answer format: numeric, % implied, no suffix.

Known inhibition results, listed for orientation:
{"MOLECULE": "Cn1nnnc1SCC(=O)NC1CCCCC1", "inhibition (%)": -2.62}
{"MOLECULE": "CCOC(=O)N1CCN(c2c(N3CCN(c4ccccn4)CC3)c(=O)c2=O)CC1", "inhibition (%)": -2.79}
{"MOLECULE": "CCN(C(=O)c1cc(Cl)ccc1OC)C1CCCCC1", "inhibition (%)": -2.5}

QUERY: For the molecule shown here, COCCCNC(=O)c1ccc2c(c1)OCO2 , give the reported inhibition.
RESULT: 5.74

---

# ASSAY DETAILS: reversal of MRP1-mediated doxorubicin resistance, pilot screen, H69AR cells, doxorubicin co-treatment (AID 601)
# EXPERIMENTAL SETUP: H69AR cells + 2 uM doxorubicin, CellTiter-Glo, 72 h; at 10 µM; stronger effect = higher value
RECORDED METRIC: differential viability (reversal) (%)
Give the value, in units of %, as a plain number.

Some solved cases for reference:
{"MOLECULE": "O=C(COc1ccccc1)Nc1ccc(-c2nnc(-c3ccco3)o2)cc1", "MEASURE UNIT": "%", "differential viability (reversal)": 8.73}
{"MOLECULE": "CC1(C)Cc2cccc(OCC(O)CN3CCN(c4ccccn4)CC3)c2O1 (stereo unspecified)", "MEASURE UNIT": "%", "differential viability (reversal)": -17.7}
{"MOLECULE": "Cc1ccccc1-c1noc(N)c1C#N", "MEASURE UNIT": "%", "differential viability (reversal)": 1.42}
{"MOLECULE": "COc1cccc(-c2cc(C(=O)Nc3cc(OC)c(OC)c(OC)c3)no2)c1", "MEASURE UNIT": "%", "differential viability (reversal)": -72}
{"MOLECULE": "CCOC(=O)C1CCCN(c2cc(=O)n(Cc3ccc(F)cc3)c(=O)[nH]2)C1 (stereo unspecified)", "MEASURE UNIT": "%", "differential viability (reversal)": 3.08}

Now look at this one.
QUERY: I have this molecule here, Cc1cccc(N2C(=O)CC(N3CCN(Cc4ccc(Cl)cc4)CC3)C2=O)c1 (stereo unspecified) , and I need its recorded differential viability (reversal).
RESULT: 12.2
